- EXPERIMENTAL TARGET: Leucine-rich repeat serine/threonine-protein kinase 2 (Homo sapiens, UniProt Q5S007, G2019S)
- Sequence (Q5S007 whole entry G2019S, the tested form may be a part): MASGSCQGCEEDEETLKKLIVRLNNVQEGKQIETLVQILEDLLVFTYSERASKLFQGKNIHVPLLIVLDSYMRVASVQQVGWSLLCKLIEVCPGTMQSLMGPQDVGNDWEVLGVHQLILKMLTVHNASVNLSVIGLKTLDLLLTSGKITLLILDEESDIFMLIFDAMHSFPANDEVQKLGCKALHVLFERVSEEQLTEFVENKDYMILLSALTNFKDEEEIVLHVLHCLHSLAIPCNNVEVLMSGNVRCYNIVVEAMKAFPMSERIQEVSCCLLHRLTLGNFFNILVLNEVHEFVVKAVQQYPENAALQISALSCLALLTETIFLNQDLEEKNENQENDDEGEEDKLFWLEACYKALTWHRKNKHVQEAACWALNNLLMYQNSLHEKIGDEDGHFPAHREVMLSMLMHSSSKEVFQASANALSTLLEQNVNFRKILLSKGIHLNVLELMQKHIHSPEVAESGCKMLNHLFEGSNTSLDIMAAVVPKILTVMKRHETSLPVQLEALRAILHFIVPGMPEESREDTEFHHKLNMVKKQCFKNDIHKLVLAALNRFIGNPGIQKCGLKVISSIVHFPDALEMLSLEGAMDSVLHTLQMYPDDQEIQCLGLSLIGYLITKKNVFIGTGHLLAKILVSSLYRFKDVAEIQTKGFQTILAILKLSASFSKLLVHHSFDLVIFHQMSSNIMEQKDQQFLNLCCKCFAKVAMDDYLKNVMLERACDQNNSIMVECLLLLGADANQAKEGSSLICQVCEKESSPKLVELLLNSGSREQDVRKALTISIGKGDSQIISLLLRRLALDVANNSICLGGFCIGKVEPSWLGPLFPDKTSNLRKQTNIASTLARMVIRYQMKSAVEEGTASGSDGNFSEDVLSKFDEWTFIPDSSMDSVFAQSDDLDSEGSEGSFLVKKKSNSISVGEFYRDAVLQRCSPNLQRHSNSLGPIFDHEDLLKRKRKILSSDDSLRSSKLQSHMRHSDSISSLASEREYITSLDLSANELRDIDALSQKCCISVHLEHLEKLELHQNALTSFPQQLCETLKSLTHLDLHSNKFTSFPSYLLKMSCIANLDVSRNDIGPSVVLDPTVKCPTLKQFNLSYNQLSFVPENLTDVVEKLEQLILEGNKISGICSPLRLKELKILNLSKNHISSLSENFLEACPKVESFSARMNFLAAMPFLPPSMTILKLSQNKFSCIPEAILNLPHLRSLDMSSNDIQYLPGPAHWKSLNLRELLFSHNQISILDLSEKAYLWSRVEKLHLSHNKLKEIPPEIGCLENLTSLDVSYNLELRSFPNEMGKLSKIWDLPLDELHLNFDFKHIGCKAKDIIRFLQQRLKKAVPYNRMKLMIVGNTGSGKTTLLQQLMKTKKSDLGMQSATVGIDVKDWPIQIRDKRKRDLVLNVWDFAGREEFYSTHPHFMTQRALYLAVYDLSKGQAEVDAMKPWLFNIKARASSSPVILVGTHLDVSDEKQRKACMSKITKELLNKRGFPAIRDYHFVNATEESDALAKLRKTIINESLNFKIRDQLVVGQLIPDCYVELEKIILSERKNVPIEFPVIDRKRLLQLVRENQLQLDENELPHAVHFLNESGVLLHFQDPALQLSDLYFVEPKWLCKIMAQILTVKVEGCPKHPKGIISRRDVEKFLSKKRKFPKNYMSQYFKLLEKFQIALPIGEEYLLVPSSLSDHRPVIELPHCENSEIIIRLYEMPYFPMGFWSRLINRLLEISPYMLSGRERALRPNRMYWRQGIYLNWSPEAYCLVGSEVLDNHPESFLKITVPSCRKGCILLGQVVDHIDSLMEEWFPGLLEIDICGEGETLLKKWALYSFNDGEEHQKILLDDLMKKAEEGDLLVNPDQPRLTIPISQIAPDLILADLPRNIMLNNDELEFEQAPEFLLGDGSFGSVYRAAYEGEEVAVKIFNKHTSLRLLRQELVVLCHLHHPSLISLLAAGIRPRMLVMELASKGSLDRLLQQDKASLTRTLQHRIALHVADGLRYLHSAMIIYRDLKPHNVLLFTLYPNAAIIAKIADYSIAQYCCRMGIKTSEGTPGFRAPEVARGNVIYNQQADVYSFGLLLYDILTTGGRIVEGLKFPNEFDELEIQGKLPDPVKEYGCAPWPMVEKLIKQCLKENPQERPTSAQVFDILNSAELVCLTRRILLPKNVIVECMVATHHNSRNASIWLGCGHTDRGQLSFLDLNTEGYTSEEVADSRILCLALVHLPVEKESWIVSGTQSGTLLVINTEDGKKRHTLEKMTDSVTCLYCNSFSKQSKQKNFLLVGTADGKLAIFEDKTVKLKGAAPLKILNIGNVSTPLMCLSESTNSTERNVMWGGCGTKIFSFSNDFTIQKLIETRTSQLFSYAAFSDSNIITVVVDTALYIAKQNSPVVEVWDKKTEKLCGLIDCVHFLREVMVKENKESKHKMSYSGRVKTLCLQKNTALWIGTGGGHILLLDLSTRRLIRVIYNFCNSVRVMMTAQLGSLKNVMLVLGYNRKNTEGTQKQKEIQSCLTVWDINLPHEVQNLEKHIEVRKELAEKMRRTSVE
- TEST DESCRIPTION: Inhibition of LRRK2 G2019S mutant (unknown origin) Ser935 phosphorylation expressed in HEK293 cells by cell-based assay
Parameter: pEC50. Scope: all listed entries.
Scale explanation: pEC50 corresponds to minus log10 of a concentration expressed in moles per litre.

- SMILES STR: "CC(C)Nc1c(C#N)cnc2cc(-c3cnn(C)c3)ccc12"
  READOUT KIND: "pEC50"
  OBSERVED RESULT: 6.85
- SMILES STR: "CC(C)Nc1c(C#N)cnc2cc(-c3ccc(S(C)(=O)=O)cc3)ccc12"
  READOUT KIND: "pEC50"
  OBSERVED RESULT: 6.36
- SMILES STR: "Cn1cc(-c2ccc3c(N4CCC4)c(C#N)cnc3c2)cn1"
  READOUT KIND: "pEC50"
  OBSERVED RESULT: 6.30

Alright, here's another molecule for you.
For CS(=O)(=O)c1ccc(-c2ccc3c(N4CCCCC4)c(C#N)cnc3c2)cc1 , what is its reported pEC50?
5.80

----------
Listing of recorded IC50 by entry.
- EXPERIMENTAL TARGET: Leucine-rich repeat serine/threonine-protein kinase 2 (Homo sapiens, UniProt Q5S007, G2019S)
- TEST DESCRIPTION: Inhibition of GST-tagged LRRK2 G2019S mutant (970-2527 amino acids) (unknown origin) assessed as inhibition of LRRKtide phosphorylation by HTRF assay
Give the number; nM is assumed, so skip it.

A selection of reference data follows.
- SMILES STR: "CC(C)Nc1c(C#N)cnc2cc(-c3ccc(S(=O)(=O)N4CCOCC4)cc3)ccc12"
  IC50 [nM]: 10
- SMILES STR: "CC(C)Nc1c(-c2nccs2)cnc2cc(-c3ccc(S(C)(=O)=O)cc3)ccc12"
  IC50 [nM]: 2890
- SMILES STR: "Cn1cc(-c2ccc3c(N4CCC4)c(C#N)cnc3c2)cn1"
  IC50 [nM]: 13

Please examine the following record next.
Which IC50 is listed for CN(c1ccccc1)c1c(C#N)cnc2cc(-c3ccc(S(C)(=O)=O)cc3)ccc12 ?
278
